# System: UDH-4 (environmental isolate, S. saprophyticus)
# Experiment Description: MIC by broth microdilution
# Format: cell-based
# Study Conditions: Staphylococcus saprophyticus
Quantity: MIC (µg/mL)
Record the value in µg/mL, omitting the unit from your answer.

Using known records, supply MIC for O=C(O)c1cn(C2CC2)c2cc(N3CCNCC3)c(F)cc2c1=O [Ciprofloxacin, ciprofloxacin, reference compound]
64

Next item in the queue.
Using known records, supply MIC for COC(=O)CC1COc2c(cc3c4c2CCCN4CCC3)-c2c(NC(C)(C)C)n3c(-c4ccc(NC(C)=O)cc4)csc3[n+]21 (stereo not drawn)
12.5

###

MIC listing for selected molecules.
# System: MRSA-3 (clinical isolate, methicillin-resistant Staphylococcus aureus)
# Experiment Description: MIC by broth microdilution
# Assay type: cell-based
Record the value in µg/mL, omitting the unit from your answer.

Examples with answers:
Using known records, supply MIC for COC(=O)CC1COc2c(cc3c4c2CCCN4CCC3)-c2c(NC(C)(C)C)n3c(-c4ccc(Br)cc4)c(C)sc3[n+]21 (stereo not drawn)
3.12

Using known records, supply MIC for NCC[C@H](O)C(=O)N[C@@H]1C[C@H](N)[C@@H](O[C@H]2O[C@H](CN)[C@@H](O)[C@H](O)[C@H]2O)[C@H](O)[C@H]1O[C@H]1O[C@H](CO)[C@@H](O)[C@H](N)[C@H]1O [Amikacin, amikacin, reference compound]
2

Next item in the queue.
Using known records, supply MIC for CCOC(=O)c1sc2n(c(NC(C)(C)C)c3[n+]2C(CC(=O)OC)COc2c-3cc3c4c2CCCN4CCC3)c1-c1ccccc1 (stereo not drawn)
12.5

Data credit: patent US10526343B2
